- System: DU-145 prostate
- ASSAY_OVERVIEW: NCI-60 one-dose screen, 48 h (100 = growth as untreated, 0 = no growth, -100 = all killed)
- PROTOCOL_CONDITIONS: 10 µM unless noted
Compounds without any hit were thinned out: in the full panel of roughly 83,000, 20% have a hit.
READOUT_KIND: growth (%)
Number in %, nothing else.

Field growth (entry C=CC1CN2CCC1CC2C(O)c1ccnc2ccc(OC)cc12 (stereo not given) ) reads 127

Record summary for O=C(N/N=C/c1cc(Cl)ccc1O)C(=O)N/N=C/c1cc(Cl)ccc1O : reported growth = 71.1

Note to self: growth recorded for Cc1ncc(C(=O)Nc2ccc(CN3CCN(C)CC3)c(C(F)(F)F)c2)cc1C#Cc1cnc(NC2CC2)c2ncccc12 was -83.1

Entry COc1ccc2c(c1)/C(=C/c1c(-c3cc(OC)c(OC)c(OC)c3)nc3sccn13)C(=O)N2 — recorded growth = 88

So, COC(=O)c1ccc2[nH]c(O)c(C(=Nc3ccc(N(C)C(=O)CN4CCN(C)CC4)cc3)c3ccc(C)cc3)c2c1 ? Its growth was -14.2

// field: growth; key: CCOc1nc(-c2ccccc2)cc2c(O)c(C(=O)N/N=C/c3ccccc3O)[nH]c(=O)c12 ; value = 97.6

# growth (compound: CC(C)(C)c1ccc(OCCOC(=O)CBr)cc1 ) is 109

For record O=C(Nc1ccc(-n2cc(-c3ccncc3)c(-c3ccc(Cl)c(O)c3)n2)cc1)c1cc(C(F)(F)F)cc(C(F)(F)F)c1 the listed growth is 74.2

# growth of COC(=O)/C(Br)=C/c1c[nH]c2ccc(Br)cc12 = 104

What the record says about COC(=O)c1c[n+]([O-])ccc1OC : growth is 114

====

- Tested on: IGROV1 ovarian
- ASSAY_OVERVIEW: NCI-60 one-dose screen, 48 h (100 = growth as untreated, 0 = no growth, -100 = all killed)
- PROTOCOL_CONDITIONS: 10 µM unless noted
Compounds without any hit were thinned out: in the full panel of roughly 83,000, 20% have a hit.
Please respond with reported growth for every item in the list.
# unit: % | format: bare number

Lab note: O=S(=O)(O)c1ccc2c(c1)Sc1cc(S(=O)(=O)O)ccc1O2 gave growth of 112

Record Cc1nc2c(nnn2-c2ccccc2)c2nc(-c3ccc(Cl)cc3)oc(=O)c12 . Reported growth: 111

Sample Cc1ccc2c(c1)C(=O)CCS2 ; growth observed: 104

Kindly note the recorded growth for CCOc1ccccc1/C=N\N=C(N/N=C/c1ccccc1OCC)N/N=C/c1ccccc1OCC , which is 21

Query CC(=O)N(N=O)c1ccc([N+](=O)[O-])cc1Cl yields growth of 67.7

growth recorded for this compound, COc1ccc2oc(=O)cc(CN3C(=O)S/C(=C\c4ccc(Cl)cc4)C3=O)c2c1 , is 102

The compound Clc1ccc(N/N=C/c2ccccn2)nc1 showed growth equal to 11.2

Lab note: measured growth of C=CN(C)S(C)(=O)=O was 51.5

Query Nc1nc2c(c3ncncc13)C(c1cccc(C(F)(F)F)c1)Cc1ncncc1-2 (stereo not given) yields growth of 54.4

COc1cccc2c1n([O-])c1cccc(OC)c1[n+]2=O yielded growth of -46.3

The measured growth associated with Cc1cc(CSc2ccc(Cl)cc2)ccc1N reads 86

Recorded result, CCOC(=O)c1c(C)oc2ncnc(Nc3ccc(NC(=O)Nc4ccc(CC)cc4)cc3)c12 , growth: 110

Memo: N=C(c1ccccc1)N(Cc1ccccc1)Cc1ccccc1 , reported growth: 67

Record Cc1ccc(C(=O)C(Br)C(Br)c2ccccc2)cc1 (stereo not given) , field growth: 62.5

In plain terms, COc1ccc(C2C3(C#N)C(N)=NC(=C(C#N)C#N)C23C#N)cc1OC (stereo not given) has a documented growth of 113
